Reference source: ChEMBL document CHEMBL4270563

In this section we review reported pKi values for a set of compounds.
# TARGET OF ASSAY: UniProt P22303
# Sequence (P22303 whole entry): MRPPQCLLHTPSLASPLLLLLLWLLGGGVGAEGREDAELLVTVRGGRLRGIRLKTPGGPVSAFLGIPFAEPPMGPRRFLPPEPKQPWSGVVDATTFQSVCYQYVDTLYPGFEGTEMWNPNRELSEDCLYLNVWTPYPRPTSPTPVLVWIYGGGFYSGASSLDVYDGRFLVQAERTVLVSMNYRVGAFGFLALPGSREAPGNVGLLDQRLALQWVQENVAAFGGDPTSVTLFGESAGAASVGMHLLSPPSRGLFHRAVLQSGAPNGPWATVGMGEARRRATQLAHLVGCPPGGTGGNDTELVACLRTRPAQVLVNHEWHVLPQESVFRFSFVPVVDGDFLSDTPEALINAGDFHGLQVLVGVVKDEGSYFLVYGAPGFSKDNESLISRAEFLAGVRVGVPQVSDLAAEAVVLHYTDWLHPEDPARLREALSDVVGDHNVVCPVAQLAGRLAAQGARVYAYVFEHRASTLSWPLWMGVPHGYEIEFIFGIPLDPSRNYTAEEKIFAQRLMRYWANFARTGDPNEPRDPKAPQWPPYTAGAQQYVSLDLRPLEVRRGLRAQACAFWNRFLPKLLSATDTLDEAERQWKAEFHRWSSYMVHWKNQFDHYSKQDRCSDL
# ASSAY NOTES: Inhibition of recombinant human AChE expressed in HEK293 cells using varying levels of acetylthiocholine iodide as substrate by Lineweaver-burk plot analysis
pKi: −log10 of the molar value.

{"MOL": "COc1cc2oc(C(=O)OCCC3CCN(Cc4ccccc4)CC3)cc(=O)c2cc1OC", "pKi": 7.96}
{"MOL": "O=C(NCCC1CCN(Cc2ccccc2)CC1)c1cc(=O)c2ccccc2o1", "pKi": 7.24}
{"MOL": "O=C(NCCCC1CCN(Cc2ccccc2)CC1)c1cc(=O)c2cc(O)ccc2o1", "pKi": 7.96}
{"MOL": "Nc1ccc2oc(C(=O)NCCC3CCN(Cc4ccccc4)CC3)cc(=O)c2c1", "pKi": 7.21}
{"MOL": "O=C(NCCC1CCN(Cc2ccccc2)CC1)c1cc(=O)c2cc([N+](=O)[O-])ccc2o1", "pKi": 7.92}
{"MOL": "COc1cc2oc(C(=O)NCCCC3CCN(Cc4ccccc4)CC3)cc(=O)c2cc1OC", "pKi": 7.68}
{"MOL": "COc1cc2[nH]c(C(=O)NCCC3CCN(Cc4ccccc4)CC3)cc(=O)c2cc1OC", "pKi": 7.22}
{"MOL": "COc1cc2oc(C(=O)NCCC3CCN(Cc4ccccc4)CC3)cc(=O)c2cc1OC", "pKi": 7.41}

====

# ASSAY NOTES: Selectivity ratio of Ki for displacement of [3H]DTG from sigma2 receptor in rat liver membranes to Ki for displacement of (+)-[3H]pentazocine from guinea pig brain membrane sigma1 receptor
# Type: cell membranes
In this section we review reported Ratio Ki values for a set of molecules.

{"MOL": "COc1cc2[nH]c(C(=O)NCCC3CCN(Cc4ccccc4)CC3)cc(=O)c2cc1OC", "Ratio Ki": 13}
{"MOL": "COc1cc2oc(C(=O)NCCC3CCN(Cc4ccccc4)CC3)cc(=O)c2cc1OC", "Ratio Ki": 6}
{"MOL": "O=C(NCCC1CCN(Cc2ccccc2)CC1)c1cc(=O)c2cc([N+](=O)[O-])ccc2o1", "Ratio Ki": 293}
{"MOL": "COc1ccc2[nH]c(C(=O)NCCC3CCN(Cc4ccccc4)CC3)cc(=O)c2c1", "Ratio Ki": 64}
{"MOL": "O=C(NCCC1CCN(Cc2ccccc2)CC1)c1cc(=O)c2cc(O)c(O)cc2o1", "Ratio Ki": 10}
{"MOL": "COc1ccc2c(=O)cc(C(=O)NCCC3CCN(Cc4ccccc4)CC3)[nH]c2c1", "Ratio Ki": 8}
{"MOL": "O=C(NCCC1CCN(Cc2ccccc2)CC1)c1cc(=O)c2cc(O)ccc2o1", "Ratio Ki": 8}
{"MOL": "O=C(NCCCC1CCN(Cc2ccccc2)CC1)c1cc(=O)c2cc(O)ccc2o1", "Ratio Ki": 87}
{"MOL": "O=C(NCCC1CCN(Cc2ccccc2)CC1)c1cc(=O)c2cccc(O)c2[nH]1", "Ratio Ki": 6}
{"MOL": "Nc1ccc2oc(C(=O)NCCC3CCN(Cc4ccccc4)CC3)cc(=O)c2c1", "Ratio Ki": 290}

====

# System: SH-SY5Y
# ASSAY NOTES: Neuroprotective activity against rotenone/oligomycin A-induced mitochondrial oxidative stress in human SH-SY5Y cells at 3 uM after 24 hrs by MTT assay relative to control
# Type: functional
QUANTITY MEASURED: Activity (%)

{"MOL": "COc1cc2oc(C(=O)NC3CCN(Cc4ccccc4)CC3)cc(=O)c2cc1OC", "TARGET OF ASSAY": "SH-SY5Y", "QUANTITY MEASURED": "Activity", "UNITS OF MEASURE": "%", "VALUE REPORTED": 12.6}
{"MOL": "COc1cc2oc(C(=O)NCCC3CCN(Cc4ccccc4)CC3)cc(=O)c2cc1OC", "TARGET OF ASSAY": "SH-SY5Y", "QUANTITY MEASURED": "Activity", "UNITS OF MEASURE": "%", "VALUE REPORTED": 22.4}
{"MOL": "O=C(NCCC1CCN(Cc2ccccc2)CC1)c1cc(=O)c2cc(O)ccc2[nH]1", "TARGET OF ASSAY": "SH-SY5Y", "QUANTITY MEASURED": "Activity", "UNITS OF MEASURE": "%", "VALUE REPORTED": 29.7}
{"MOL": "COc1cc2oc(C(=O)OCC3CCN(Cc4ccccc4)CC3)cc(=O)c2cc1OC", "TARGET OF ASSAY": "SH-SY5Y", "QUANTITY MEASURED": "Activity", "UNITS OF MEASURE": "%", "VALUE REPORTED": 12.4}
{"MOL": "O=C(NCCC1CCN(Cc2ccccc2)CC1)c1cc(=O)c2cc(O)ccc2o1", "TARGET OF ASSAY": "SH-SY5Y", "QUANTITY MEASURED": "Activity", "UNITS OF MEASURE": "%", "VALUE REPORTED": 15.2}
{"MOL": "COc1ccc2oc(C(=O)NC3CCN(Cc4ccccc4)CC3)cc(=O)c2c1", "TARGET OF ASSAY": "SH-SY5Y", "QUANTITY MEASURED": "Activity", "UNITS OF MEASURE": "%", "VALUE REPORTED": 8.6}

====

# Tested on: SH-SY5Y
# ASSAY NOTES: Neuroprotective activity against rotenone/oligomycin A-induced mitochondrial oxidative stress in human SH-SY5Y cells at 1 uM after 24 hrs by MTT assay relative to control
# Format: functional
In this section we review reported Activity values for a set of compounds.
QUANTITY MEASURED: Activity (%)

{"MOL": "COc1cc2oc(C(=O)OCC3CCN(Cc4ccccc4)CC3)cc(=O)c2cc1OC", "VALUE REPORTED": 6.8}
{"MOL": "COc1ccc2oc(C(=O)NC3CCN(Cc4ccccc4)CC3)cc(=O)c2c1", "VALUE REPORTED": 14.6}
{"MOL": "COc1cc2oc(C(=O)NC3CCN(Cc4ccccc4)CC3)cc(=O)c2cc1OC", "VALUE REPORTED": 12.3}
{"MOL": "O=C(NCCC1CCN(Cc2ccccc2)CC1)c1cc(=O)c2cc(O)ccc2[nH]1", "VALUE REPORTED": 17.4}
{"MOL": "O=C(NCCC1CCN(Cc2ccccc2)CC1)c1cc(=O)c2cc(O)ccc2o1", "VALUE REPORTED": 8.6}
{"MOL": "COc1cc2oc(C(=O)NCCC3CCN(Cc4ccccc4)CC3)cc(=O)c2cc1OC", "VALUE REPORTED": 17.1}

====

# ASSAY NOTES: in vitro
# TEST CONTEXT: PAMPA, pH 7.4
# Description: Permeability of the compound in pH 7.4 PBS by PAMPA-BBB assay
Criterion: Papp strictly less than 8 ×10⁻⁶ cm/s. Met: Criterion met. Not met: Criterion not met.

{"MOL": "COc1ccc2oc(C(=O)OCC3CCN(Cc4ccccc4)CC3)cc(=O)c2c1", "ASSIGNED LABEL": "Criterion met"}
{"MOL": "COc1ccc2oc(C(=O)NC3CCN(Cc4ccccc4)CC3)cc(=O)c2c1", "ASSIGNED LABEL": "Criterion met"}
{"MOL": "COc1ccc2c(=O)cc(C(=O)NCCC3CCN(Cc4ccccc4)CC3)oc2c1", "ASSIGNED LABEL": "Criterion met"}
{"MOL": "COc1ccc2[nH]c(C(=O)NCCC3CCN(Cc4ccccc4)CC3)cc(=O)c2c1", "ASSIGNED LABEL": "Criterion not met"}
{"MOL": "O=C(NCCC1CCN(Cc2ccccc2)CC1)c1cc(=O)c2cc(O)ccc2o1", "ASSIGNED LABEL": "Criterion met"}
{"MOL": "COc1ccc2oc(C(=O)NCCCC3CCN(Cc4ccccc4)CC3)cc(=O)c2c1", "ASSIGNED LABEL": "Criterion not met"}
{"MOL": "COc1cc2nc(C(=O)NCCC3CCN(Cc4ccccc4)CC3)cc(OC)c2cc1OC", "ASSIGNED LABEL": "Criterion not met"}
{"MOL": "O=C(NC1CCN(Cc2ccccc2)CC1)c1cc(=O)c2cc(O)ccc2o1", "ASSIGNED LABEL": "Criterion met"}

====

# ASSAY NOTES: in vitro
# TEST CONTEXT: PAMPA, pH 7.4
Criterion: Papp strictly less than 5 ×10⁻⁶ cm/s. Met: y. Not met: n.

{"MOL": "COc1cc2oc(C(=O)OCC3CCN(Cc4ccccc4)CC3)cc(=O)c2cc1OC", "ASSIGNED LABEL": "y"}
{"MOL": "O=C(NCCC1CCN(Cc2ccccc2)CC1)c1cc(=O)c2ccccc2o1", "ASSIGNED LABEL": "n"}
{"MOL": "COc1cc2[nH]c(C(=O)NCCC3CCN(Cc4ccccc4)CC3)cc(=O)c2cc1OC", "ASSIGNED LABEL": "n"}
{"MOL": "COc1ccc2oc(C(=O)NCCC3CCN(Cc4ccccc4)CC3)cc(=O)c2c1", "ASSIGNED LABEL": "n"}
{"MOL": "COc1cc2oc(C(=O)NCCC3CCN(Cc4ccccc4)CC3)cc(=O)c2cc1OC", "ASSIGNED LABEL": "n"}
